test system: MCF7; experiment: Cytotoxicity in human MCF7 cells assessed as reduction in cell viability incubated for 48 hrs by MTT assay; format: functional, cell-based; conditions: MCF7, 48 h
REPORTED_PROPERTY: IC50 (µM)
Numbers only, in µM.

The reported value for O=Cc1c(-c2cc3cc(Br)ccc3oc2=O)[nH]c2ccccc12 in terms of IC50 is 7.4

###

tested on: K562; assay: Cytotoxicity in human K562 cells assessed as reduction in cell viability incubated for 48 to 72 hrs by trypan blue dye exclusion assay; assay type: functional, cell-based
REPORTED_PROPERTY: pIC50
One number for each entry, as −log10 of the molar value.

get_value(item= COc1cc(C(=O)N/N=C2\C(=O)Nc3ccc(C)cc32)cc(OC)c1OC , readout=pIC50) returns 5.70

###

system: MCF7; assay: Anticancer activity against human MCF7 cells assessed as reduction in cell viability incubated for 48 hrs by MTT assay; format: functional, cell-based; settings: MCF7, 48 h
REPORTED_PROPERTY: IC50
Give the figure together with its unit, number first.

// IC50 (MCF7) for O=C(c1ccccc1)c1ccc2[nH]c(-c3c4ccccc4cc4ccccc34)nc2c1 = 16.2 µM

###

Give measured pIC50 for each item. Keep answers brief.
system: HEK293; test: Antiproliferative activity against HEK293 cells incubated for 48 hrs by MTT assay; type: cell-based; conditions: Homo sapiens, HEK293, 48 h
Numbers only, as −log10 of the molar value.

Each compound below has a recorded value; state its pIC50.
1. COc1ccc(Cn2cc(C(=O)c3cccnc3Nc3ccc(F)cc3)nn2)cc1OC
2. O=C(c1cn(Cc2cccc(Oc3ccccc3)c2)nn1)c1cccnc1Nc1ccc(F)cc1
3. COc1cc(Cn2cc(C(=O)c3cccnc3Nc3ccc(F)cc3)nn2)cc(OC)c1

[4.19, 4.22, 4.12]

###

target: Vascular endothelial growth factor receptor 1 (Homo sapiens)
Sequence (P17948 whole entry): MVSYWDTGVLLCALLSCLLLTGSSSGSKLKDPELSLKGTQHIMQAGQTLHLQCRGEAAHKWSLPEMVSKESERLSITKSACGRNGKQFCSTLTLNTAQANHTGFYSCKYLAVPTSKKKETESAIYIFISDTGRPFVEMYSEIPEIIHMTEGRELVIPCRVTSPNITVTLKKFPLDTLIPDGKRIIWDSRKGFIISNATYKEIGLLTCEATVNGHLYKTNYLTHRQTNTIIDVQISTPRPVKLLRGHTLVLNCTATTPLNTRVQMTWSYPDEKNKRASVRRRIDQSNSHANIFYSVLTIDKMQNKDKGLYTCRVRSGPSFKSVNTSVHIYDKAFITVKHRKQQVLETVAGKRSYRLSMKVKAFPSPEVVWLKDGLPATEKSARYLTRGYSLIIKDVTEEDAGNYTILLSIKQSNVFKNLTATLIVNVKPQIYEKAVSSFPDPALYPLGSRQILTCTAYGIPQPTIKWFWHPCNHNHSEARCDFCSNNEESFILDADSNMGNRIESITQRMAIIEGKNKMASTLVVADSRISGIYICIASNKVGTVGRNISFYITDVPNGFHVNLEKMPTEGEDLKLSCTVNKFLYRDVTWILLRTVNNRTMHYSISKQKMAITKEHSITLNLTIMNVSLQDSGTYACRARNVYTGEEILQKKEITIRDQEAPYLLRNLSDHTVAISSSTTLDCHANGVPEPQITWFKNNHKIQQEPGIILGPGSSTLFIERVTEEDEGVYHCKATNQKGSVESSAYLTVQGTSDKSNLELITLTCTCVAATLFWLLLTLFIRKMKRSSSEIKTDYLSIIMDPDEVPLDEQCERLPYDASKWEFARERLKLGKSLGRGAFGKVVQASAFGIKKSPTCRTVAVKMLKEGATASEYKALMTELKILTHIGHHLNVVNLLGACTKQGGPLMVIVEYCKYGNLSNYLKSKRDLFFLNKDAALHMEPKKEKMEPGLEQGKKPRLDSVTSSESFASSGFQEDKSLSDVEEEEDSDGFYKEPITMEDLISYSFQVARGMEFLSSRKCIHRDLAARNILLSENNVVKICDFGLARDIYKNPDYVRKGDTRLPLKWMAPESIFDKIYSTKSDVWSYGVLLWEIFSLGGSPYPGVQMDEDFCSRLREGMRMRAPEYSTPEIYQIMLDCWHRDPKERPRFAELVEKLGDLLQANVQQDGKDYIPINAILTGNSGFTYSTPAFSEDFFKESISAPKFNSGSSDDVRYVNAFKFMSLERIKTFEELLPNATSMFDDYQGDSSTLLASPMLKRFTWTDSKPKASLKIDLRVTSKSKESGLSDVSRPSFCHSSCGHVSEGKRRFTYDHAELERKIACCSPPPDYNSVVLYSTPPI
REPORTED_PROPERTY: pIC50
One number for each entry, as −log10 of the molar value.

Record summary for O=C(Nc1ccc(F)cc1)c1sccc1Nc1cccc2c1OCO2 : reported pIC50 = 5.60
